Measured TGI, listed per entry.
System: T-47D breast
Test: NCI tumour cell line growth inhibition, 48 h

Known TGI results, listed for orientation:
{"columns": ["COMPOUND", "DATA VALUE"],
 "data": [
  ["O=C(CCc1ccc(O)cc1)NCCc1cccc(O)c1", "> 50 µM"],
  ["Cc1nc(Nc2ccc(Cl)cc2Cl)sc1C(=O)Nc1ccccc1", "> 100 µM"],
  ["OC1(c2ccccc2)CSc2ncnn21 (stereo unspecified)", "> 100 µM"],
  ["Cc1cc(CN2CCCCC2)c(O)c(CN2CCCCC2)c1", "> 100 µM"],
  ["CCOC(=O)C(NC(=O)c1ccccc1)(Nc1cc(C)on1)C(F)(F)F (stereo unspecified)", "> 100 µM"]
]}

Now consider a different compound.
Name the value of TGI reported for "COC(=O)/C(=C(\C)NC(C)=O)c1c(C(=O)OC)[nH]c2ccccc12" when tested on T-47D breast.
> 100 µM

###

Test system: SN12C renal
Experiment: NCI tumour cell line growth inhibition, 48 h
QUANTITY: TGI (µM)
Report the value in µM with no unit label.

Field: example entries. Status: answers known.
{"columns": ["MOLECULE", "TGI, µM"],
 "data": [
  ["COC(=O)c1c(O)ccc2c1c1c(n2CCc2ccccc2)C(=O)c2ccccc2C1=O", 24.9],
  ["COc1ccc(CN=C2N/C(=C\\c3ccccc3Cl)C(=O)N2C)cc1", 39.8],
  ["COc1cc(/C=C2\\N=C(c3ccccc3)N(c3cc4cc(Sc5ccccc5)ccc4[nH]3)C2=O)cc(OC)c1OC", 52.6],
  ["Cc1ccc2c(c1)c(C1=C(c3cn(C)c4ccccc34)C(=O)NC1=O)cn2C", 16.8],
  ["CCCCCCC[CH2][Sn]([Cl])([Cl])[CH2]CCCCCCC", 19.9]
]}

Return reported TGI. Input molecule: "Clc1ccc(-c2ccc(CNCC3CCNCC3)o2)c(-c2ccccc2)c1"
3.03

###

System: DU-145 prostate
Assay: NCI tumour cell line growth inhibition, 48 h
QUANTITY: TGI

Example entries begin here.
{"columns": ["MOLECULE", "TARGET DESC", "TGI"],
 "data": [
  ["O=c1c(Br)c(-c2ccccc2)[nH]c2ccccc12", "DU-145 prostate", "> 100 µM"],
  ["COC(=O)C(=Cc1ccccc1[N+](=O)[O-])C(=O)OC", "DU-145 prostate", "6.61 µM"],
  ["Clc1nc(Cl)c2ncn(CC#CCn3cnc4c(Cl)nc(Cl)nc43)c2n1", "DU-145 prostate", "3.23 µM"],
  ["O=C1OC(c2ccc(O)c(F)c2)(c2ccc(O)c(F)c2)c2cccc3cccc1c23", "DU-145 prostate", "> 25 µM"],
  ["O=C1C[C@@H](c2ccc(O)cc2)[C@@]2(O1)C(=O)O[C@H]([C@@H](O)CO)[C@@H]2O", "DU-145 prostate", "> 100 µM"]
]}

Give the measured TGI for COc1ccc(/C=C2/SC(c3ccccc3)N(NC(=O)CCCCCCCCC(=O)NN3C(=O)/C(=C\c4ccc(OC)c(OC)c4)SC3c3ccccc3)C2=O)cc1OC (stereo unspecified)
> 100 µM

###

// reported TGI per item
System: NCI-H226 lung
Assay: NCI tumour cell line growth inhibition, 48 h

Sample records with TGI:
{"columns": ["MOLECULE", "TGI"],
 "data": [
  ["COc1ccc(C2c3c(n(C)c(=O)n(C)c3=O)OC(N(C)C)(N(C)C)C2(F)F)cc1 (stereo unspecified)", "> 100 µM"],
  ["CC(=O)c1c(C)cn(S(=O)(=O)NC(=O)Nc2nncs2)c1C", "> 100 µM"],
  ["O=S(CCc1ccccc1)Nc1ccccc1 (stereo unspecified)", "> 100 µM"],
  ["CCOC(=O)C(CS)NC(=O)CCCCCCCC(=O)O (stereo unspecified)", "> 100 µM"],
  ["OC1(c2ccccc2)CSc2ncnn21 (stereo unspecified)", "> 100 µM"]
]}

Respond only with TGI recorded for "NC(=Nc1ccc(Cl)cc1)c1ccccc1N"
> 100 µM
